B1: CAMK2A (parent)
chain: CIQQILEAVLHCHQMGVVHRDLKP

Variants of: B1
ASSAY NAME: protein stability index of a GFP-peptide fusion (GPS, HEK-293T) (PSI 1-6); higher = more stable;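 further: lentivirally expressed fusions sorted by FACS into six bins by GFP to DsRed ratio, PSI derived from sequencing read proportions per bin multiplied by bin number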
TEST CONDITIONS: c terminus: a fixed tail appended
REPORTED METRIC: protein stability index

1) V17E; 2.01
2) V18C; 2.28
3) I2R; 2.21
4) V9Q; 1.96
5) H11K; 1.72
6) A8H; 2.39
7) Q4D; 2.04
8) H11C; 2.39
9) D21S; 1.66
10) C12R; 4.86
11) I5W; 2.01
12) L10F; 2.72
13) C1F; 3.55
14) V17N; 3.21
15) C1R; 2.22
16) H13E; 2.49
17) G16R; 1.6
18) L10N; 2.05
19) V9W; 2.45
20) C12W; 2.65
21) H13K; 1.73
22) Q14L; 3.6
23) V18I; 2
24) I2G; 1.99
25) V9N; 1.96
26) V9P; 1.26
27) V17G; 3.75
28) G16W; 1.79
29) I5S; 1.69
30) C12L; 3.33
31) V9L; 3.23
